Provide the recorded half-life at 10 μM for the entries that follow.
- assay_summary: Hepatocyte stability assay, human
- Format: in vitro ADME
- condition_description: human, hepatocytes, T½

Exercise: Request the reported half-life at 10 μM associated with C=C(CC(=O)NC1(c2ccc(C(F)(F)F)cc2)CC1)C(=O)O [Example 11]
Key: > 460 min

Exercise: Record: C=C(CC(=O)N[C@@H](C)c1ccc(C(F)(F)F)cn1)C(=O)O [Example 30]
Key: > 460 min

Exercise: Record: C=C(CC(=O)N[C@@H](C)c1ccc(C(F)(F)F)cc1)C(=O)OC1CS(=O)(=O)C1 [Example 27]
Key: 12 min

Exercise: Record: C=C(CC(=O)N[C@@H](C)c1ccc(C(F)(F)F)cn1)C(=O)OC1CS(=O)(=O)C1 [Example 33]
Key: 11 min

Exercise: Record: CC(C)/C=C(\CC(=O)N[C@@H](C)c1ccc(C(F)(F)F)cc1)C(=O)O [Example 44]
Key: > 460 min

Exercise: Record: C=C(CC(=O)N[C@@H](C)c1ccc(C(F)(F)F)cc1)C(=O)OCCN1CCOCC1 [Example 29]
Key: 38 min

Exercise: Record: C=C(C(=O)O)C(C)C(=O)N[C@@H](C)c1ccc(C(F)(F)F)cc1 (single isomer, unassigned; isomer 1) [Example 54]
Key: > 460 min

Exercise: Record: C=C(CC(=O)N[C@@H](C)c1ccc(C(F)(F)F)cc1)C(=O)O [Example 3]
Key: > 460 min

----------
- assay_summary: Hepatocyte stability assay, mouse
- Type: in vitro ADME
- condition_description: mouse, hepatocytes, T½
quantity_kind: half-life at 10 μM

Exercise: Request the reported half-life at 10 μM associated with C=C(CC(=O)N[C@@H](C)c1ccc(C(F)(F)F)cn1)C(=O)OC1CN(S(C)(=O)=O)C1 [Example 37]
Key: 12 min

Exercise: Record: C=C(CC(=O)N[C@@H](C)c1ccc(C(F)(F)F)cc1)C(=O)OCCN(C)C [Example 26]
Key: < 3 min

Exercise: Record: C[C@H](NC(=O)C/C(=C/c1ccccc1)C(=O)O)c1ccc(C(F)(F)F)cc1 [Example 48]
Key: 16 min

Exercise: Record: C=C(CC(=O)N[C@@H](C)c1ccc(SC(F)(F)F)cc1)C(=O)O [Example 17]
Key: 95 min

----------
- assay_summary: Hepatocyte stability assay, human
- Format: in vitro ADME
- condition_description: human, hepatocytes, T½
Provide the recorded half-life at 10 μM for the entries that follow.
Numbers only here, please. The scale is h.

Exercise: Request the reported half-life at 10 μM associated with `C=C(CC(=O)N[C@@H](C)c1ccc(C(F)(F)F)cc1)C(=O)OCCN(C)C`
Key: 0.4

Exercise: Record: `C=C(CC(=O)N[C@@H](C)c1ccc(C(F)(F)F)cn1)C(=O)OC1CCN(C)CC1`
Key: 2.05

Exercise: Record: `C=C(CC(=O)N[C@@H](C)c1ccc(C(F)(F)F)cc1)C(=O)OCCNS(C)(=O)=O`
Key: 1.17

Exercise: Record: `C=C(CC(=O)NCc1ccc(Cl)cc1)C(=O)OC1CCN(S(C)(=O)=O)CC1`
Key: 1.95

Exercise: Record: `C=C(CC(=O)N[C@@H](C)c1ccc(SC(F)(F)F)cc1)C(=O)O`
Key: 3.72
